Salmonella typhimurium, CMCC 50115 MIC data
// note: answer is a bare numeric in µg/mL

Example results:
| record smiles | units | MIC |
| --- | --- | --- |
| Nc1nc(N)c2c(ccc3c2ccn3Cc2cccc(F)c2)n1 | µg/mL | 0.79 |
| Nc1nc(N)c2c(ccc3c2ccn3CC2CCCC2)n1 | µg/mL | 0.79 |
| COc1ccc(Br)cc1Cn1ccc2c3c(N)nc(N)nc3ccc21 | µg/mL | 0.26 |

# evaluate next
Please look at this compound and report its MIC: C#Cc1ccc(Cn2ccc3c4c(N)nc(NC5CC5)nc4ccc32)cc1 2.37
